meta.source: PubChem BioAssay (NCI)

test system: UO-31 renal; test: NCI tumour cell line growth inhibition, 48 h
Each item that follows carries a reported GI50.
Experimental Readout: GI50

Record Smiles: N#Cc1c(N)nc(NCc2ccccc2)c(C#N)c1-c1ccccc1Cl
Endpoint Value: 38.1 µM
--
Record Smiles: O=C(NC1CCCCC1)NS(=O)(=O)c1ccc(-n2nc3c(c2-c2ccc(Cl)cc2)Cc2ccccc2-3)cc1
Endpoint Value: 3.64 µM
--
Record Smiles: CS(=O)(=O)c1ccc(Oc2cc(F)cc(C#N)c2)c2c1[C@H](O)C(F)(F)C2
Endpoint Value: > 100 µM
--
Record Smiles: S=C(c1ccc2c(c1)OCO2)N1CCN(c2cccc(Cl)c2)CC1
Endpoint Value: 4.3 µM
--
Record Smiles: CCN(CC)CCCCNc1ncc2cc(-c3cc(OC)cc(OC)c3)c(NC(=O)NC(C)(C)C)nc2n1
Endpoint Value: 1.37 µM
--
Record Smiles: Cc1[nH]nc2ccc3nc(-c4ccc5[nH]ncc5c4)c4c(c3c12)CCCC4
Endpoint Value: 0.802 µM
--
Record Smiles: O=C1/C(=C/c2ccccc2F)CN(C(=O)C(Cl)Cl)C/C1=C\c1ccccc1F
Endpoint Value: 0.44 µM
--
Record Smiles: CC(C)n1c(=O)n(C)c2cnc3cc(F)c(-c4ccc(OCCCN5CCCCC5)nc4)cc3c21
Endpoint Value: 3.74 µM
--
Record Smiles: O=S(=O)(CCNCc1ccc(-c2ccc3ncnc(Nc4ccc(OCc5cccc(F)c5)c(Cl)c4)c3c2)o1)c1ccccc1
Endpoint Value: 9.06 µM

---

test system: HCT-15 colon; assay: NCI tumour cell line growth inhibition, 48 h; in the data active means GI50 below about 0.43 µM; inactive means the rest
Outcomes: active, inactive

Molecule: COc1ccc2c(c1)/C(=C\c1c(Cl)n(C)c3ccccc13)C(=O)N2
Assigned Category: inactive
--
Molecule: O=C1CCC(N2Cc3c(C#CCCCNC(=O)c4cc5c(o4)C(=O)c4ccccc4C5=O)cccc3C2=O)C(=O)N1 (centres undefined)
Assigned Category: inactive
--
Molecule: CCN(CC)CCCC(Cc1ccccc1)Nc1c2ccc(Cl)cc2nc2ccc(OC)cc12 (centres undefined)
Assigned Category: inactive
--
Molecule: COc1ccc(CCN2CCC(Nc3nc4ccccc4n3Cc3ccc(F)cc3)CC2)cc1
Assigned Category: inactive
--
Molecule: C/C(=C\CCc1ccsc1)CC/C=C(\C)CCCN1CCC(CO)CC1
Assigned Category: inactive
--
Molecule: COC1=CC(c2ccc[nH]2)=N/C1=C\c1[nH]c(C)c(C(C)=O)c1C
Assigned Category: active
--
Molecule: Cn1ccnc1C(=O)/C=C/c1ccc(CC(=O)Nc2ccc(F)cc2)cc1
Assigned Category: inactive
--
Molecule: Nc1ccc(-c2nc3ccccc3o2)cc1S
Assigned Category: inactive
--
Molecule: N#C/C(=C1C=C/C(=N\O)C(Cl)=C\1)c1ccccc1
Assigned Category: inactive
--
Molecule: O=C(Nc1ccc(OCc2nnc(-c3ccccc3)o2)c(F)c1)Nc1ccc(Cl)c(C(F)(F)F)c1
Assigned Category: inactive
--
Molecule: C=CC[C@@H]1/C=C(\C)C[C@H](C)C[C@H](OC)[C@H]2O[C@@](O)(C(=O)C(=O)N3CCCC[C@H]3C(=O)O[C@H](/C(C)=C/C3CC[C@@H](O)[C@H](OC)C3)[C@H](C)[C@@H](O)CC1=O)[C@H](C)C[C@@H]2OC (some centres undefined)
Assigned Category: inactive
--
Molecule: Oc1ccc(-c2cn3cc(Cl)sc3n2)cc1
Assigned Category: inactive
--
Molecule: CS(=O)(=O)c1ccc(Oc2cc(F)cc(C#N)c2)c2c1[C@H](O)C(F)(F)C2
Assigned Category: inactive
--
Molecule: O=C(O)c1c[nH]c2c(OCc3ccccc3)c3ccccc3c(O)c2c1=O
Assigned Category: inactive
--
Molecule: CC1(C)N=C(N)N=C(N)N1c1cccc(CCCCOc2ccccc2)c1
Assigned Category: inactive
--
Molecule: Cc1cc2cc3cc(C)c(N)cc3[n+](C)c2cc1N
Assigned Category: inactive
--
Molecule: CCOC(=O)c1c(Cl)c2c(n1Cc1cccc(OC)c1)-c1oncc1CC2
Assigned Category: inactive
--
Molecule: CCCC1=C(C(=O)OCC)C(c2ccccc2OC)C(C#N)=C(N)O1 (centres undefined)
Assigned Category: inactive
--
Molecule: C=C(C)[C@@H]1CC[C@]2(C(=O)O)CC[C@]3(C)[C@H](CC[C@@H]4[C@@]5(C)C/C(=C/c6ccc(OC)cc6)C(=O)C(C)(C)[C@@H]5CC[C@]43C)[C@@H]12
Assigned Category: inactive

---

test system: K-562 leukemia; assay: NCI tumour cell line growth inhibition, 48 h
Catalogue of GI50 values

Record Smiles: Nc1ccc(-c2nc3ccccc3o2)cc1S
GI50: 19000 nM

Record Smiles: O=C(Nc1ccc(OCc2nnc(-c3ccccc3)o2)c(F)c1)Nc1ccc(Cl)c(C(F)(F)F)c1
GI50: 2070 nM

Record Smiles: O=S(=O)(CCNCc1ccc(-c2ccc3ncnc(Nc4ccc(OCc5cccc(F)c5)c(Cl)c4)c3c2)o1)c1ccccc1
GI50: > 25000 nM

Record Smiles: C/C(=C\CCc1ccsc1)CC/C=C(\C)CCCN1CCC(CO)CC1
GI50: 1280 nM

Record Smiles: S=C(c1ccc2c(c1)OCO2)N1CCN(c2cccc(Cl)c2)CC1
GI50: 318 nM

Record Smiles: COc1cc(-n2cnc(-c3ccc(Cl)cc3)c2)cc(OC)c1OC
GI50: 7330 nM

---

Catalogue of GI50 readings, one per entry.
tested on: M14 melanoma; test: NCI tumour cell line growth inhibition, 48 h

Compound: O=C(CN1C(=O)S/C(=C\C(Cl)=C\c2ccccc2)C1=O)NCCc1ccc(O)cc1
GI50: 1650 nM
--
Compound: S=C(c1ccc2c(c1)OCO2)N1CCN(c2cccc(Cl)c2)CC1
GI50: 472 nM
--
Compound: COc1cc(NC(=O)CSc2nc3ccccc3c(=O)n2CCc2ccccc2)cc(OC)c1OC
GI50: 5490 nM
--
Compound: N#Cc1c(N)nc(NCc2ccccc2)c(C#N)c1-c1ccccc1Cl
GI50: 23200 nM
--
Compound: CCN(CC)CCCC(Cc1ccccc1)Nc1c2ccc(Cl)cc2nc2ccc(OC)cc12 (stereo not given)
GI50: 1820 nM
--
Compound: COc1nc(N)nc2c1ncn2[C@@H]1O[C@H](CO)[C@@H](O)[C@@H]1O
GI50: > 100000 nM
--
Compound: CCn1c(-c2nonc2N)nc2cncc(C(=O)NCCNC)c21
GI50: 17200 nM
--
Compound: Cc1ccc(-c2nc(N)c(C#N)c3c2CCOc2c-3ccc3ccccc23)cc1
GI50: 377 nM
--
Compound: COc1ccc(OC)c(/C=C2\COc3ccc(O)c(O)c3C2=O)c1
GI50: 2090 nM
--
Compound: COc1ccc2c(c1)/C(=C\c1c(Cl)n(C)c3ccccc13)C(=O)N2
GI50: 1610 nM

---

tested on: CCRF-CEM leukemia; experiment: NCI tumour cell line growth inhibition, 48 h

Compound: CSc1nc(C)c(Br)c(=O)n1C1OC(COC(C)=O)C(OC(C)=O)C(OC(C)=O)C1OC(C)=O (stereo not given)
Assay Target: CCRF-CEM leukemia
TGI: > 100 µM
//
Compound: c1ccc2sc(C3(N4CCC5(CC4)OCCO5)CCCCC3)cc2c1
Assay Target: CCRF-CEM leukemia
TGI: > 100 µM
//
Compound: CC1=NN(c2cccc(Cl)c2)C(=N/c2nc3ccccc3s2)/C1=C\c1cccs1
Assay Target: CCRF-CEM leukemia
TGI: 47.1 µM
//
Compound: O=C(O)CP(=O)(O)O
Assay Target: CCRF-CEM leukemia
TGI: > 100 µM
//
Compound: O=NN/C(=C1\Nc2ccc([N+](=O)[O-])cc2NC1=O)C(O)c1ccc([N+](=O)[O-])cc1 (stereo not given)
Assay Target: CCRF-CEM leukemia
TGI: > 100 µM
//
Compound: COC(=O)C(Cc1c(C2Nc3ccccc3C2CC(NC(C)=O)C(=O)OC)[nH]c2ccccc12)NC(C)=O (stereo not given)
Assay Target: CCRF-CEM leukemia
TGI: > 100 µM
//
Compound: NCCCCN(CCCN)Cc1ccc2ccccc2c1
Assay Target: CCRF-CEM leukemia
TGI: > 100 µM
//
Compound: C[C@@H](CO)C1=CC(C#C[Si](C)(C)C)N(C(=O)Oc2ccccc2)c2ccccc21 (stereo not given in full)
Assay Target: CCRF-CEM leukemia
TGI: 72.6 µM
//
Compound: OCCCc1cc(O)c2c(c1)C(CO)C(c1ccc(O)c(O)c1)O2 (stereo not given)
Assay Target: CCRF-CEM leukemia
TGI: > 100 µM
//
Compound: CCOC(=O)c1c[nH]cc1-c1cn(S(=O)(=O)c2ccccc2)cc1C
Assay Target: CCRF-CEM leukemia
TGI: > 100 µM

---

system: SK-MEL-2 melanoma; experiment: NCI tumour cell line growth inhibition, 48 h
Experimental Readout: TGI (µM)

Record Smiles: C[C@H](N[C@H]1CCC[C@]1(O)C#Cc1ccc2c(c1)OCO2)c1ccccc1
Unit Annotation: µM
Relation Sign: >
Endpoint Value: 25
--
Record Smiles: N#Cc1c(-c2cccc(Cl)c2)cc(-c2ccc(Cl)cc2)nc1N
Unit Annotation: µM
Relation Sign: =
Endpoint Value: 36.7
--
Record Smiles: COc1ccc(-c2nc(N3CCOCC3)c3sc(CN(C)c4ncc(C(=O)NO)cn4)cc3n2)cn1
Unit Annotation: µM
Relation Sign: =
Endpoint Value: 0.0799
